Recorded measurements of % viability, one per entry
Tested on: HeLa
Conditions: bulk resorufin, single well, 28.5 h, 10 µM, Bulk resorufin fluorescence
ENDPOINT: % viability (%)

MOLECULE	SUBJECT_OF_TEST	ENDPOINT	READOUT_UNIT	READING
CC[C@H](Cn1ncc2ccccc2c1=O)NC(=O)c1cccs1 [CBK284301]	HeLa	% viability	%	90.5
O=C(CN1C(=O)[C@H]2CCCN2C(=O)c2ccccc21)N1CCCCC1 [CBK282435]	HeLa	% viability	%	80.4
COc1cc2[nH]c(=S)n(C3CCCC3)c(=O)c2cc1OC [CBK288518]	HeLa	% viability	%	93.5
C[C@@H]1CN2CCCC2CN1Cc1ccc(N(C)C)cc1 (stereo partly shown) [CBK285406]	HeLa	% viability	%	102
Nc1ccc2cc(-c3ccccc3)cnc2n1 [CBK061881]	HeLa	% viability	%	94.9
O=C(O)c1ccc(CN(c2ccccc2)S(=O)(=O)c2ccccc2)cc1 [CBK262406]	HeLa	% viability	%	82.8
CC(C)[C@H](Cn1nc(C2CC2)ccc1=O)NC(=O)Cc1cccs1 [CBK282368]	HeLa	% viability	%	88.6
COC(=O)c1ccc(-c2nc3nnc(C)n3[nH]2)cc1 [CBK027508]	HeLa	% viability	%	87.7
C[C@@H]1CN2CCCC2CN1Cc1ccc(Br)o1 (stereo partly shown) [CBK285410]	HeLa	% viability	%	101
CCC(=O)N1CCC[C@H](Cn2nc(-c3cccs3)ccc2=O)C1 [CBK283046]	HeLa	% viability	%	100

Origin of values: paper PMC12040169
